Assignment: determine reported TGI for the given compounds.
# Tested on: DMS 273 small cell lung
# test: NCI tumour cell line growth inhibition, 48 h

Example results:
Asked: Lookup: TGI / DMS 273 small cell lung / `COc1ccc([N+]2=NC(c3ccc([N+](=O)[O-])cc3)=NN(c3ccccc3)C2)cc1`
Given back: > 100 µM

Asked: # returns recorded TGI (system: DMS 273 small cell lung) for O=C(Nc1cc(Cl)c(Cl)cc1Cl)C(=O)C1C=CCS1(=O)=O (stereo unspecified)
Given back: > 100 µM

Asked: Hello, I am looking for reported TGI with DMS 273 small cell lung for `O=[N+]([O-])c1cccc(/C=N\NS(=O)(=O)c2ccc(Cl)cc2)c1O` . Could you help?
Given back: > 100 µM

Asked: Hello, I am looking for reported TGI with DMS 273 small cell lung for CC1C[C@@]2(c3ccccc3)C(=O)CCC[C@H]2N1 (stereo partly specified) . Could you help?
Given back: > 100 µM

Asked: Item: `CC(C)CS(=O)(=O)/C(=C(\c1ccc(Br)cc1)S(=O)(=O)CC(C)C)c1ccc(Br)cc1` Test system: DMS 273 small cell lung Read-out: TGI Value: ?
Given back: > 100 µM

Asked: // lookup TGI | system=DMS 273 small cell lung | key= `O=C(/C=C/c1ccc([N+](=O)[O-])o1)N1CCN(Cc2ccccc2)CC1`
Given back: 24 µM

Quick one: give me TGI for each item below, same order please.
1. O=C(Nc1ccc(Cl)cc1Cl)C(=O)Nn1c(=S)[nH]c2ccccc2c1=O
2. CCCCCCCCC[C@@H]1CC(=O)OCC2OC(O[C@H](CCCCCCCCC)CC(=O)OCC3OC(O[C@H](CCCCCCCCC)CC(=O)OCC4OC(O1)C(O)C(O)C4O)C(O)C(O)C3O)C(O)C(O)C2O (stereo partly specified)
3. CC[C@@H]1OC2(C)CC(S(=O)(=O)c3ccccc3O)CC1O2 (stereo partly specified)
4. COc1cc2c[n+](C)c3c4cc5c(cc4ccc3c2cc1OC)OCO5
5. Cc1[nH]c2ccccc2c1C1Cc2ccccc2N1C(=O)/C=C\C(=O)O (stereo unspecified)

Given back:
1: > 100 µM; 2: 21.6 µM; 3: > 100 µM; 4: 11.6 µM; 5: > 100 µM

###

Assign TGI to each entry below.
# System: HOP-92 NSCLC
# test: NCI tumour cell line growth inhibition, 48 h

Examples from the recorded data:
Asked: Which TGI value belongs to COC(=O)C1C(C(=O)OC)C2(OC)c3ccccc3-c3ccccc3C12 (stereo not given) ?
Given back: > 100 µM

Asked: Data request, read-out TGI, for `CCNC(=O)CCN(C(=O)O)S(=O)(=O)c1ccc(NC(=O)c2ccccc2)cc1`
Given back: > 100 µM

Asked: Endpoint output: TGI of `COC(=O)c1c(O)ccc2c1c1c(n2Cc2ccccc2)C(=O)c2ccccc2C1=O` . Value?
Given back: 27.1 µM

Asked: // lookup TGI for `Cc1ccccc1NC(=O)N/C(N)=N/c1nc(-c2cccc([N+](=O)[O-])c2)cs1`
Given back: 6.6 µM

Asked: What does the data say about its TGI? Entry: CCN(CC)C1Oc2cc3c(cc2C(c2ccc(OC)cc2)C1C)OCO3 (stereo not given)
Given back: 57.9 µM

Lab note: each compound below needs its TGI filled in.
1. CCC(Sc1cc(Cl)c(C)cc1S(=O)(=O)Nc1nc(N)nc(N(C)C)n1)C(=O)O (stereo not given)
2. COc1ccc2cc(Oc3ccc(Cl)cc3)c(=O)oc2c1
3. O=c1c(Oc2ccc(F)cc2F)cc2cnc(NC3CCOCC3)nc2n1C1CCS(=O)(=O)CC1
4. COc1cc(S(=O)(=O)Nc2nc(-c3ccc(N4C(=O)CSC4c4cccs4)cc3)cs2)ccc1Cl (stereo not given)
5. C=C1C(=O)OC2/C=C(\CO)C3OC3C3OC3(C)CC(OC(=O)/C(=C/C)CO)C12 (stereo not given)

Given back:
1. > 10 µM
2. > 100 µM
3. > 25 µM
4. > 100 µM
5. > 100 µM

###

# Test system: SK-MEL-5 melanoma
# test: NCI tumour cell line growth inhibition, 48 h
valueType: TGI

Reference set (6 entries):
Asked: What value of measured TGI is listed for `O=C1c2ccccc2-c2c1c1ccccc1c(=O)n2CCCNCCCn1ccnc1` ?
Given back: 1.68 µM

Asked: # get_value(readout='TGI', item= `C=C(Cl)c1c(OC)cccc1OCc1ccccc1` )
Given back: > 100 µM

Asked: Please give the measured TGI for this molecule: CCN(CC)CCC(=O)NC1c2ccc(Cl)cc2Oc2c(C)cccc21 (stereo unspecified)
Given back: 26.1 µM

Asked: // TGI lookup, key: CCOC(=O)C(N)C[S][Sn]([CH3])([CH3])[Cl] (stereo unspecified)
Given back: > 100 µM

Asked: Requested read-out: TGI. Entry: Ic1ncnc2c1ncn2C1CCCO1 (stereo unspecified)
Given back: > 100 µM

Asked: TGI lookup needed for `CCCCc1c2c(nc3c1CCC/C3=C\c1ccccc1)C(=O)CCC2` , thanks.
Given back: 30.4 µM

For each of the items listed, what is its TGI?
1. O=C1CC(NC(=O)C(F)(F)F)c2c1csc2Br (stereo unspecified)
2. O=C1c2ccccc2C(O)(C(=O)O)C1(O)CC=C(Cl)Cl (stereo unspecified)
3. CC[C@@H]1OC2(C)CC(S(=O)(=O)c3ccccc3O)CC1O2 (stereo partly specified)
4. COc1ccc(-c2onc(-c3ccc([N+](=O)[O-])cc3)c2C2=NCCN2)cc1
5. CN[C@@H](C)C(=O)N[C@H](C(=O)N1CCC[C@H]1C(=O)N[C@H]1c2ccccc2C[C@H]1OCC#CC#CCO[C@@H]1Cc2ccccc2[C@@H]1NC(=O)[C@@H]1CCCN1C(=O)[C@@H](NC(=O)[C@H](C)NC)C1CCCCC1)C1CCCCC1
6. CC1C[C@@]2(c3ccccc3)C(=O)CCC[C@H]2N1 (stereo partly specified)
7. COc1cc(OCc2ccc3nc(-c4ccccc4)c(Cl)nc3c2)cc(OC)c1OC

Given back:
1: > 100 µM; 2: > 125 µM; 3: > 100 µM; 4: > 100 µM; 5: 13.7 µM; 6: > 100 µM; 7: > 100 µM

Take each entry in turn and give its TGI.
1. CCOC(=O)CCC(NC(=O)c1ccc(CNc2nc3ccccc3nc2C(=O)OCC)cc1)C(=O)OCC (stereo unspecified)
2. O=C1CC(CC(O)[C@@H]2CCCC[C@@H]2O)CC(=O)N1c1ccccc1 (stereo partly specified)
3. Cc1ccc2c(c1)C(=O)/C(=N/Nc1ccc(Cl)cc1)CCO2

Given back:
> 100 µM
> 100 µM
> 100 µM

Record TGI for all entries; do not skip any.
1. Cc1nc2sc(C(=O)Nc3cccc(Cl)c3C)c(N)c2cc1C(=O)/C=C/c1ccccc1
2. C[C@]12C[C@H](c3ccccc3)Nc3ccccc3N1C(c1ccccc1)=NO2
3. COc1cc(C(=O)/C(C)=C/c2c[nH]c3ccccc23)cc(OC)c1OC
4. CC/C(C)=C1\CCC(CN2CCOCC2)C1=O (stereo unspecified)
5. CC(=O)C(I(OS(=O)(=O)c1ccc(C)cc1)c1ccccc1)=P(c1ccccc1)(c1ccccc1)c1ccccc1

Given back:
1.43 µM
> 100 µM
0.0205 µM
78.4 µM
63.3 µM

###

# Test system: U251 CNS
The categories you may choose from are 1 (yes) = active, 0 (no) = inactive

Solved entries (count: 5):
Asked: In this assay, the call recorded for `COc1ccc(/C=N\NC(=O)CN2CCN(c3cc4c(cc3F)c(=O)c(C(=O)N/N=C/c3ccc(OC)c(OC)c3)cn4C3CC3)CC2)cc1OC` was what?
Given back: 0 (no)

Asked: Field: outcome | Entry: `COc1cc(C(=O)/C(C)=C/c2c[nH]c3ccccc23)cc(OC)c1OC`
Given back: 1 (yes)

Asked: // return assay outcome for `CC(C)c1ccc(C(=O)Nc2nc3ccc(O)cc3s2)cc1`
Given back: 0 (no)

Asked: Hi, do you know how `CC(=O)[O-].CC(=O)[O-].[Pt+2].c1cscn1.c1cscn1` came out in this test?
Given back: 0 (no)

Asked: What did this assay record as the result for `COc1ccc(CN(C)c2ccc(CO)c(Cl)c2)cc1` ?
Given back: 0 (no)

***
Asked: Check the results log: what was the call for CC12OC(c3ccccc3)=CC(c3ccc(Cl)cc3)=C1C(c1ccccc1)=CC2=O (stereo not given) ?
Given back: 0 (no)

Asked: Given `CO[C@@H]1/C=C\C=C(/C)C(=O)NC2=CC(=O)C(NCCN(C)C)=C(C[C@@H](C)C[C@@H](OC)[C@@H](O)[C@H](C)/C=C(\C)[C@H]1OC(N)=O)C2=O` , state the outcome it received in this test.
Given back: 1 (yes)

Asked: Entry `CC1=C2[C@@H](CC1)[C@]1(C)O[C@@](C3CCCCC3)(C[C@H]1OC(=O)CO)[C@H]2OC(=O)/C=C/c1ccccc1` : call = ?
Given back: 0 (no)

Asked: Could you kindly confirm the outcome this assay logged for CCN(CC)CC(O)CNc1ccc(NCC2CO2)c2c1C(=O)c1ccccc1C2=O (stereo not given) ?
Given back: 1 (yes)

Asked: Outcome logged for `O=C1c2ccccc2-c2c1c1ccccc1c(=O)n2CCCNCCCn1ccnc1` in this assay:
Given back: 1 (yes)

Asked: Called result for CSc1ccc(C2=NN(C(=O)c3ccc(F)cc3)C(c3ccc(F)cc3)C2)cc1 (stereo not given)
Given back: 0 (no)

Asked: GET /call?item= `CCN1CCN(C(=O)[C@]23CC[C@@H](C)[C@H](C)[C@@H]2C2=CC[C@@H]4[C@@]5(C)C/C(=C/c6ccncc6)C(=O)C(C)(C)[C@@H]5CC[C@@]4(C)[C@]2(C)CC3)CC1` returns the recorded outcome of this test.
Given back: 0 (no)

Asked: Hi team, can someone confirm the assay call for `CCOC(=O)c1cc(C#N)c(=O)n(/N=C(\C)c2ccncc2)c1O` ?
Given back: 0 (no)

Asked: Any idea what this test logged for CC(C)=CCCC(C)c1ccc(C)c2c1OCN(CC1CCNCC1)C2 (stereo not given) ?
Given back: 0 (no)

Asked: Give the logged outcome of this assay for the following compound: `CC[C@H](NC(=O)[C@H](C)NC)C(=O)N1C[C@@H](O)C[C@H]1Cc1c(-c2[nH]c3cc(F)ccc3c2C[C@@H]2C[C@H](O)CN2C(=O)[C@H](CC)NC(=O)[C@H](C)NC)[nH]c2cc(F)ccc12`
Given back: 0 (no)
